Target: T1, human CD28, full-length, expressed on transfected Expi293 cells (human, UniProt P10747 19-220)
T1 construct: whole, on cells
Test: flow cytometry, 100 nM, Expi293 cells with human CD28

{"columns": ["Binder", "MFI ratio to WT (ΔWT) [fold]"],
 "data": [
  ["variant ICOSL IgV-Fc fusion N52A/N57F/Q100S (Fc fusion) DTQEKEVRAMVGSDVELSCACPEGSRFDLNDVYVYWQTSESKTVVTYHIPQASSLEFVDSRYRNRALMSPAGMLRGDFSLRLFNVTPQDEQKFHCLVLSSSLGFQEVLSVEVTLHVAANFSVGSGGGGSEPKSSDKTHTCPPCPAPEAEGAPSVFLFPPKPKDTLMISRTPEVTCVVVDVSHEDPEVKFNWYVDGVEVHNAKTKPREEQYNSTYRVVSVLTVLHQDWLNGKEYKCKVSNKALPAPIEKTISKAKGQPREPQVYTLPPSREEMTKNQVSLTCLVKGFYPSDIAVEWESNGQPENNYKTTPPVLDSDGSFFLYSKLTVDKSRWQQGNVFSCSVMHEALHNHYTQKSLSLSPG", 7]
]}
